These entries and their values trace back to ChEMBL document CHEMBL1145431.

system: Mus musculus; test: Effect on liver weight in mouse at 0.1103 mmol/kg, po; format: functional
Where a SMILES comes first, the peptide text is derived from it. The star is where a group is joined. Succinyl(O17-estradiol) = C[C@]12CC[C@@H]3c4ccc(O)cc4CC[C@H]3[C@@H]1CC[C@@H]2OC(=O)CCC(=O)*; X1 = C[C@]12CC[C@@H]3c4ccc(OCC(=O)*)cc4CC[C@H]3[C@@H]1CCC2O
Entries and their Activity
MEASURE_NAME: Activity (g)

* CC(C)[C@H](NC(=O)[C@H](CC(=O)O)NC(=O)CNC(=O)[C@H](CCCNC(=N)N)NC(=O)CCC(=O)O[C@H]1CC[C@H]2[C@@H]3CCc4cc(O)ccc4[C@H]3CC[C@]12C)C(=O)O ({Succinyl(O17-estradiol)}-RGDV-OH) | 1.34
* C[C@]12CC[C@@H]3c4ccc(OCC(=O)N[C@@H](CCCNC(=N)N)C(=O)NCC(=O)N[C@@H](CC(=O)O)C(=O)N[C@@H](CO)C(=O)O)cc4CC[C@H]3[C@@H]1CCC2O (some centres not stated) (X1-RGDS-OH) | 1.329
* C[C@]12CC[C@@H]3c4ccc(O)cc4CC[C@H]3[C@@H]1CC[C@@H]2OC(=O)CCC(=O)N[C@@H](CCCNC(=N)N)C(=O)NCC(=O)N[C@@H](CC(=O)O)C(=O)N[C@@H](Cc1ccccc1)C(=O)O ({Succinyl(O17-estradiol)}-RGDF-OH) | 1.338
* C[C@]12CC[C@@H]3c4ccc(OCC(=O)N[C@@H](CCCNC(=N)N)C(=O)NCC(=O)N[C@@H](CC(=O)O)C(=O)N[C@@H](Cc5ccccc5)C(=O)O)cc4CC[C@H]3[C@@H]1CCC2O (some centres not stated) (X1-RGDF-OH) | 1.339
* C[C@]12CC[C@@H]3c4ccc(O)cc4CC[C@H]3[C@@H]1CC[C@@H]2O [ESTRADIOL] | 1.335
* CC(C)[C@H](NC(=O)[C@H](CC(=O)O)NC(=O)CNC(=O)[C@H](CCCNC(=N)N)NC(=O)COc1ccc2c(c1)CC[C@@H]1[C@@H]2CC[C@]2(C)C(O)CC[C@@H]12)C(=O)O (some centres not stated) (X1-RGDV-OH) | 1.337
* C[C@]12CC[C@@H]3c4ccc(O)cc4CC[C@H]3[C@@H]1CC[C@@H]2OC(=O)CCC(=O)N[C@@H](CCCNC(=N)N)C(=O)NCC(=O)N[C@@H](CC(=O)O)C(=O)N[C@@H](CO)C(=O)O ({Succinyl(O17-estradiol)}-RGDS-OH) | 1.331

----------
tested on: Mus musculus; test: Effect on calcium level in mouse at 0.1103 mmol/kg, po; type: functional
Where a SMILES comes first, the peptide text is derived from it. The star is where a group is joined. Succinyl(O17-estradiol) = C[C@]12CC[C@@H]3c4ccc(O)cc4CC[C@H]3[C@@H]1CC[C@@H]2OC(=O)CCC(=O)*
Below, each entry is listed alongside its reported Activity.
MEASURE_NAME: Activity (%)

• C[C@]12CC[C@@H]3c4ccc(O)cc4CC[C@H]3[C@@H]1CC[C@@H]2OC(=O)CCC(=O)N[C@@H](CCCNC(=N)N)C(=O)NCC(=O)N[C@@H](CC(=O)O)C(=O)N[C@@H](Cc1ccccc1)C(=O)O ({Succinyl(O17-estradiol)}-RGDF-OH) = 51.903
• CC(C)[C@H](NC(=O)[C@H](CC(=O)O)NC(=O)CNC(=O)[C@H](CCCNC(=N)N)NC(=O)CCC(=O)O[C@H]1CC[C@H]2[C@@H]3CCc4cc(O)ccc4[C@H]3CC[C@]12C)C(=O)O ({Succinyl(O17-estradiol)}-RGDV-OH) = 52.003
